# credit: the supplement of paper PMC11061612

- Test system: WM35 (Melanoma);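 further: after 72 h of two-drug dosing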
- Assay text: Bliss excess, mean over the matrix (fraction); higher = more synergy
Short version: Bliss excess at least -0.02 is condition met, less is condition not met.

Compound: CN(CCO)CC[C@H](CSc1ccccc1)Nc1ccc(S(=O)(=O)NC(=O)c2ccc(N3CCC([C@@H](O)c4ccccc4-c4ccc(Cl)cc4)CC3)cc2)cc1S(=O)(=O)C(F)(F)F [AZD4320] + C=CCn1c(=O)c2cnc(Nc3ccc(N4CCN(C)CC4)cc3)nc2n1-c1cccc(C(C)(C)O)n1 [AZD1775] (first compound max 1 µM, partner max 1 µM)
Group: condition met
//
Compound: Cc1cc2ncnn2cc1Nc1ncc2c(n1)n(C1CCOCC1)c(=O)n2C [AZD7648] + O=C(c1cc(Cc2n[nH]c(=O)c3ccccc23)ccc1F)N1CCN(C(=O)C2CC2)CC1 [Olaparib] (first compound max 10 µM, 7x7, partner max 10 µM)
Group: condition not met
//
Compound: CN(C)CCCOc1ccc(-c2ccc3ncc4c(c3c2)n(C2CCOCC2)c(=O)n4C)cn1 [AZD0156] + C[C@@H]1COCCN1C2=NC(=NC(=C2)C3(CC3)[S@](=N)(=O)C)C4=C5C=CNC5=NC=C4 [AZD6738] (first compound max 1 µM, 7x7, partner max 10 µM)
Group: condition met
//
Compound: CN(CCO)CC[C@H](CSc1ccccc1)Nc1ccc(S(=O)(=O)NC(=O)c2ccc(N3CCC([C@@H](O)c4ccccc4-c4ccc(Cl)cc4)CC3)cc2)cc1S(=O)(=O)C(F)(F)F [AZD4320] + C1CN(CCC1(C(=O)N[C@@H](CCO)C2=CC=C(C=C2)Cl)N)C3=NC=NC4=C3C=CN4 [Capivasertib] (first compound max 1 µM, 7x7, partner max 3 µM)
Group: condition met
//
Compound: NC1(C(=O)N[C@@H](CCO)c2ccc(Cl)cc2)CCN(c2ncnc3[nH]ccc23)CC1 [Capivasertib] + CCN(CCO)CCCOc1ccc2c(Nc3cc(CC(=O)Nc4cccc(F)c4)[nH]n3)ncnc2c1 [AZD2811] (first compound max 10 µM, 7x7, partner max 1 µM)
Group: condition not met
//
Compound: COc1cccc(OCCCN)c1-c1cc(Nc2cnc(C#N)cn2)n[nH]1 [Prexasertib] + C[C@@H]1COCCN1C2=NC(=NC(=C2)C3(CC3)[S@](=N)(=O)C)C4=C5C=CNC5=NC=C4 [AZD6738] (first compound max 1 µM, 7x7, partner max 10 µM)
Group: condition not met

Q: Please indicate if the recorded Bliss excess for CC1(C)CCC(CN2CCN(c3ccc(C(=O)NS(=O)(=O)c4ccc(NCC5CCOCC5)c([N+](=O)[O-])c4)c(Oc4cnc5[nH]ccc5c4)c3)CC2)=C(c2ccc(Cl)cc2)C1 [Venetoclax] + CCN(CCO)CCCOc1ccc2c(Nc3cc(CC(=O)Nc4cccc(F)c4)[nH]n3)ncnc2c1 [AZD2811] (first compound max 1 µM, 7x7, partner max 1 µM) meets or exceeds -0.02.
Ans: condition not met

Q: Please indicate if the recorded Bliss excess for COc1nnc2ccc(N3CCC(c4ccc(OCCN5CCN(C)C(=O)[C@H]5C)cc4)CC3)nn12 [AZD5153] + C=CCn1c(=O)c2cnc(Nc3ccc(N4CCN(C)CC4)cc3)nc2n1-c1cccc(C(C)(C)O)n1 [AZD1775] (first compound max 1 µM, partner max 1 µM) meets or exceeds -0.02.
Ans: condition not met

Q: Please indicate if the recorded Bliss excess for CC(=O)Nc1cccc(-n2c(=O)n(C3CC3)c(=O)c3c(Nc4ccc(I)cc4F)n(C)c(=O)c(C)c32)c1 [Trametinib] + Cc1nc(-c2cn3c(n2)-c2ccc(-c4cnn(C(C)(C)C(N)=O)c4)cc2OCC3)n(C(C)C)n1 [Taselisib] (first compound max 1 µM, 7x7, partner max 10 µM) meets or exceeds -0.02.
Ans: condition met

Q: Please indicate if the recorded Bliss excess for COc1nnc2ccc(N3CCC(c4ccc(OCCN5CCN(C)C(=O)[C@H]5C)cc4)CC3)nn12 [AZD5153] + CCN(CCO)CCCOc1ccc2c(Nc3cc(CC(=O)Nc4cccc(F)c4)[nH]n3)ncnc2c1 [AZD2811] (first compound max 1 µM, 7x7, partner max 1 µM) meets or exceeds -0.02.
Ans: condition met

Q: Please indicate if the recorded Bliss excess for CN(CCO)CC[C@H](CSc1ccccc1)Nc1ccc(S(=O)(=O)NC(=O)c2ccc(N3CCC([C@@H](O)c4ccccc4-c4ccc(Cl)cc4)CC3)cc2)cc1S(=O)(=O)C(F)(F)F [AZD4320] + C[C@@H](Nc1cc(F)cc(F)c1)c1cc(C(=O)N(C)C)cc2c(=O)cc(N3CCOCC3)oc12 [AZD8186] (first compound max 1 µM, 7x7, partner max 3 µM) meets or exceeds -0.02.
Ans: condition met
